Test: Cytotoxicity against human KB 8.5 cells expressing MDR1 assessed as decrease in cell viability after 4 days by MTS assay
Type: functional, cell-based
Conditions: KB 8.5, 96 h
RECORDED_METRIC: pIC50
The value called pIC50 is obtained by taking minus log10 of the concentration in mol/L.

INSERT INTO assay_data (compound_smiles, recorded_metric, data_value) VALUES
  ('CC[C@H](C)[C@H](NC(=O)[C@@]1(C)CCCN1C)C(=O)N(C)[C@H](C[C@@H](OC(C)=O)c1nc(C(=O)N[C@@H](Cc2ccccc2)C[C@H](C)C(=O)O)cs1)C(C)C', 'pIC50', 8.99),
  ('CC[C@H](C)[C@H](NC(=O)[C@@]1(C)CCCN1C)C(=O)N(C)[C@H](C[C@@H](OC(C)=O)c1nc(C(=O)N[C@H](CNS(C)(=O)=O)Cc2ccccc2)cs1)C(C)C', 'pIC50', 7.03);

Lab note: measured pIC50 of CC[C@H](C)[C@H](NC(=O)[C@H](NC)C(C)C)C(=O)N(C)[C@H](C[C@@H](OC(C)=O)c1nc(C(=O)N[C@@H](Cc2ccccc2)C[C@H](C)C(=O)OC)cs1)C(C)C was 7.47

Lab note: measured pIC50 of CC[C@H](C)[C@H](NC(=O)[C@H]1CCCCN1C)C(=O)N(C)[C@H](C[C@@H](OC(C)=O)c1nc(C(=O)N[C@@H](Cc2ccccc2)CN2CCOCC2)cs1)C(C)C was 8.26

Lab note: measured pIC50 of CC[C@H](C)[C@H](NC(=O)[C@@]1(C)CCCN1C)C(=O)N(C)[C@H](C[C@@H](OC(C)=O)c1nc(C(=O)N[C@@H](Cc2ccccc2)[C@@H](O)C(=O)OC)cs1)C(C)C was 7.55

---

Assay: Cytotoxicity against MDR1 deficient human KB cells assessed as decrease in cell viability after 4 days by MTS assay
Type: functional, cell-based
Settings: 96 h
RECORDED_METRIC: IC50
Provide the measurement as a number trailed by its unit.

INSERT INTO assay_data (compound, data_value) VALUES
  ('CC[C@H](C)[C@H](NC(=O)[C@H]1CCCCN1C)C(=O)N(C)[C@H](C[C@@H](OC(C)=O)c1nc(C(=O)N[C@@H](Cc2ccccc2)C[C@H](C)C(=O)OC)cs1)C(C)C', '0.22 nM'),
  ('CC[C@H](C)[C@H](NC(=O)[C@@]1(C)CCCN1C)C(=O)N(C)[C@H](C[C@@H](OC(C)=O)c1nc(C(=O)NC(CO)Cc2ccccc2)cs1)C(C)C (mixture of isomers)', '18 nM');

# evaluate next
Lab note: measured IC50 of CC[C@H](C)[C@H](NC(=O)[C@H]1CCCCN1C)C(=O)N(C)[C@H](C[C@@H](OC(C)=O)c1nc(C(=O)NCCn2nnc3ccccc32)cs1)C(C)C was 1.44 nM

---

System: KB
Test: Resistance ratio of IC50 for human KB 8.5 cells expressing MDR1 to IC50 for MDR1 deficient human KB cells
Format: functional
Values of Ratio IC50 greater than or equal to 6 map to criterion met; values below map to criterion not met.

These recorded examples may help you get a feel for the data.
INSERT INTO assay_data (compound, category_label) VALUES
  ('CC[C@H](C)[C@H](NC(=O)[C@@]1(C)CCCN1C)C(=O)N(C)[C@H](C[C@@H](OC(C)=O)c1nc(C(=O)N[C@@H](Cc2ccccc2)C[C@H](C)C(=O)OC)cs1)C(C)C', 'criterion not met'),
  ('CC[C@H](C)[C@H](NC(=O)[C@@]1(C)CCCN1C)C(=O)N(C)[C@H](C[C@@H](OC(C)=O)c1nc(C(=O)N[C@@H](Cc2ccccc2)C(O)c2nccs2)cs1)C(C)C (mixture of isomers)', 'criterion not met'),
  ('CC[C@H](C)[C@H](NC(=O)[C@H]1CCCCN1)C(=O)N(C)[C@H](C[C@@H](OC(C)=O)c1nc(C(=O)N[C@@H](Cc2ccccc2)C[C@H](C)C(=O)OC)cs1)C(C)C', 'criterion met'),
  ('CC[C@H](C)[C@H](NC(=O)[C@@]1(C)CCCN1C)C(=O)N(C)[C@H](C[C@@H](OC(C)=O)c1nc(C(=O)N[C@@H](Cc2ccccc2)[C@@H](O)C(=O)OC)cs1)C(C)C', 'criterion not met'),
  ('CC[C@H](C)[C@H](NC(=O)[C@H]1CCCCN1C)C(=O)N(C)[C@H](C[C@@H](OC(C)=O)c1nc(C(=O)NCCn2nnc3ccccc32)cs1)C(C)C', 'criterion met');

Exercise: Textbook exercise: given the entry CC[C@H](C)[C@H](NC(=O)[C@@]1(C)CCCN1C)C(=O)N(C)[C@H](C[C@@H](OC(C)=O)c1nc(C(=O)NCCc2cscn2)cs1)C(C)C , state whether its Ratio IC50 is greater than or equal to 6.
Solution: criterion not met

Exercise: Textbook exercise: given the entry CC[C@H](C)[C@H](NC(=O)[C@@]1(C)CCCN1C)C(=O)N(C)[C@H](C[C@@H](OC(C)=O)c1nc(C(=O)N[C@H](CNS(C)(=O)=O)Cc2ccccc2)cs1)C(C)C , state whether its Ratio IC50 is greater than or equal to 6.
Solution: criterion met

Where these numbers come from: ChEMBL document CHEMBL3862032
